test: qHTS RealTime-Glo MT Cell Viability Assay in HEK293 cells - 8 hour (AID 1224887); conditions: RealTime-Glo luminescence; series mostly up to 76.8 µM; further: nearly all actives have a fitted effect of over 50% in size
Inconclusive results are not listed. Active and inactive are the calls of the source. The call rests on the fitted dose curve; in most records, active means well fitted cell-killing curve with a large enough effect in the repeat runs; inconclusive means weak or mixed curves, or effect the other way; inactive means flat fitted curve, though single readings scatter.
Respond with a class label; see active, inactive

### Prompt Kindly provide the recorded test outcome for the following molecule: "NS(=O)(=O)c1cc2c(cc1Cl)CN(C1CCCCC1)C2=O"
### Response active

### Prompt Kindly provide the recorded test outcome for the following molecule: "CCC(CC)CO"
### Response inactive

### Prompt Kindly provide the recorded test outcome for the following molecule: CC1COc2ccccc2N1 (centres undefined)
### Response inactive

### Prompt Kindly provide the recorded test outcome for the following molecule: "O=P(O)(O)OP(=O)(O)O"
### Response inactive

### Prompt Kindly provide the recorded test outcome for the following molecule: "COc1ccc2c(c1)C(=O)N(CCc1ccc(S(=O)(=O)NC(=O)NC3CCCCC3)cc1)C(=O)C2(C)C"
### Response inactive

### Prompt Kindly provide the recorded test outcome for the following molecule: "COc1cc(N)ccc1C"
### Response inactive

### Prompt Kindly provide the recorded test outcome for the following molecule: "CCCCCCCCOS(=O)(=O)O"
### Response inactive

### Prompt Kindly provide the recorded test outcome for the following molecule: "O=S(=O)(O)CCN1CCN(CCO)CC1"
### Response inactive

### Prompt Kindly provide the recorded test outcome for the following molecule: "CN(C)CCOCCO"
### Response inactive

### Prompt Kindly provide the recorded test outcome for the following molecule: "O=C1c2ccccc2C(=O)N1CCl"
### Response inactive

### Prompt Kindly provide the recorded test outcome for the following molecule: "Cc1[nH]cnc1-c1ccc(Cl)cc1"
### Response inactive

### Prompt Kindly provide the recorded test outcome for the following molecule: "OCCC(F)(F)C(F)(F)C(F)(F)C(F)(F)C(F)(F)C(F)(F)C(F)(F)C(F)(F)F"
### Response inactive

### Prompt Kindly provide the recorded test outcome for the following molecule: "CCCOC(OCCC)OCCC"
### Response inactive

### Prompt Kindly provide the recorded test outcome for the following molecule: "O=C1CC(c2ccc(Cl)cc2)CC(=O)N1"
### Response inactive

### Prompt Kindly provide the recorded test outcome for the following molecule: "COC(=O)CCCCCCCC(=O)OC"
### Response inactive

### Prompt Kindly provide the recorded test outcome for the following molecule: "CCOC(=O)c1ccc(OC(=O)CCCCCN=C(N)N)cc1"
### Response inactive

### Prompt Kindly provide the recorded test outcome for the following molecule: CC(=O)OC(C)OC(=O)C(C)c1ccc(-c2ccccc2)c(F)c1 (centres undefined)
### Response inactive

### Prompt Kindly provide the recorded test outcome for the following molecule: "OC[C@H](Cc1cccc(O)c1)[C@H](CO)Cc1cccc(O)c1"
### Response inactive

### Prompt Kindly provide the recorded test outcome for the following molecule: "O=C(CCNNC(=O)c1ccncc1)NCc1ccccc1"
### Response inactive

### Prompt Kindly provide the recorded test outcome for the following molecule: "Nc1cccc(O)c1"
### Response inactive

### Prompt Kindly provide the recorded test outcome for the following molecule: "BrCCCCCBr"
### Response inactive

### Prompt Kindly provide the recorded test outcome for the following molecule: "O=C(/N=N/C(=O)OCc1ccccc1)OCc1ccccc1"
### Response inactive

### Prompt Kindly provide the recorded test outcome for the following molecule: "CCOc1cc([N+](=O)[O-])c(OCC)cc1N1CCOCC1"
### Response active

### Prompt Kindly provide the recorded test outcome for the following molecule: "C[C@@H](Oc1ccc(CNC(=O)c2cccnc2Oc2ccc3c(c2)OCO3)c(F)c1)C(=O)O"
### Response inactive

### Prompt Kindly provide the recorded test outcome for the following molecule: "NCCN1CCOCC1"
### Response inactive

### Prompt Kindly provide the recorded test outcome for the following molecule: CCCCC(CC)COCCO (centres undefined)
### Response inactive

### Prompt Kindly provide the recorded test outcome for the following molecule: O=C(NCC(O)CO)c1c(I)c(C(=O)NCC(O)CO)c(I)c(N(CCO)C(=O)CO)c1I (centres undefined)
### Response inactive

### Prompt Kindly provide the recorded test outcome for the following molecule: "C[C@H](N)[C@H](O)c1cccc(O)c1"
### Response inactive

### Prompt Kindly provide the recorded test outcome for the following molecule: CC(C)NCC(O)COc1ccc(COCCOC(C)C)cc1 (centres undefined)
### Response inactive

### Prompt Kindly provide the recorded test outcome for the following molecule: "CC(C)=O"
### Response inactive

### Prompt Kindly provide the recorded test outcome for the following molecule: "O=C1c2cccc3c2[C@H](CCC3)CN1[C@@H]1CN2CCC1CC2"
### Response inactive

### Prompt Kindly provide the recorded test outcome for the following molecule: "O=C(O)Cc1cn(-c2ccccc2)nc1-c1ccc(Cl)cc1"
### Response inactive

### Prompt Kindly provide the recorded test outcome for the following molecule: "CC(C)c1ccc2cc(C(C)C)ccc2c1"
### Response inactive

### Prompt Kindly provide the recorded test outcome for the following molecule: Cc1ccccc1C(=O)Nc1ccc(C(=O)N2CCCC(N(C)C)c3ccccc32)cc1 (centres undefined)
### Response inactive
